- test.description: Quantitative High-Throughput drug screen in 47 multiple myeloma cell lines against the NCATS MIPE library collection: XG1_PLB cell viability assay (AID 1919866); note: nearly all actives have a fitted effect of over 35% in size
- test.settings: CellTiter-Glo ATP, 48 h; series mostly up to 45.8 µM
Records with an inconclusive call do not appear. Activity calls are given as the source filed them. Calls come from the whole dose curve; as a rule, active = well fitted cell-killing curve with a large enough effect; inconclusive = small, poorly fitted or top-dose-only effect, or effect the other way; inactive = no such curve, though single readings can be large or run the other way.
Returns: one label drawn from active, inactive

- compound: "Cc1cn([C@H]2C[C@H](N=[N+]=[N-])[C@@H](CO)O2)c(=O)[nH]c1=O"
  class.name: "active"
- compound: "CC1COc2c(N3CCN(C)CC3)c(F)cc3c(=O)c(C(=O)O)cn1c23 (centres undefined)"
  class.name: "inactive"
- compound: "CN1C2CCC1CC(OC(=O)C(CO)c1ccccc1)C2 (centres undefined)"
  class.name: "inactive"

Please indicate how the test categorized `NCCS(=O)(=O)O` .
inactive
